Let's go through some recorded IC50 values for Tyrosine-protein phosphatase non-receptor type 1 (Homo sapiens) together.
Report as a plain number; the unit µM is understood.

{"COMPOUND": "C=CCCCCc1ccc(/C=C2\\NC(=O)C=C2OC)[nH]1 [Acyclic analogue, 16]", "MEASURE": "IC50", "QUANTITATIVE READOUT": 46}

--- query ---
Qu. Enter reported IC50 observed with Tyrosine-protein phosphatase non-receptor type 1 (Homo sapiens) for C=CC/C=C(/C)c1ccc(C2=N/C(=C\c3ccc(CCCCC=C)[nH]3)C(OC)=C2)[nH]1 [Acyclic analogue, 12]
Sequence (P18031 whole entry): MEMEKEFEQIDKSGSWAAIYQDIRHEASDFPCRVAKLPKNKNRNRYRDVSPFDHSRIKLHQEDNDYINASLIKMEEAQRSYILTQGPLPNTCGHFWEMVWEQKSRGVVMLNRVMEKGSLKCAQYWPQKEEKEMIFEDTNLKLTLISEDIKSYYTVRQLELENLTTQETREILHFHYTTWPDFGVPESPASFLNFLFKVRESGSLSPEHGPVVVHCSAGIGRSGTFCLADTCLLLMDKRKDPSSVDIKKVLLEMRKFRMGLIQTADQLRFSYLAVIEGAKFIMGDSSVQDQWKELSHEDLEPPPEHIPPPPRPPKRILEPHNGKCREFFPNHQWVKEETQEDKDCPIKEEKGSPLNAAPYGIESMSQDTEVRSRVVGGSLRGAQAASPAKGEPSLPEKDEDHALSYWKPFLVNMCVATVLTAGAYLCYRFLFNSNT
Ans. 12

###

Reported pIC50 values for the following compounds.
# TARGET ENTITY: M-phase inducer phosphatase 1 (Homo sapiens, UniProt P30304)
# Sequence (P30304 whole entry): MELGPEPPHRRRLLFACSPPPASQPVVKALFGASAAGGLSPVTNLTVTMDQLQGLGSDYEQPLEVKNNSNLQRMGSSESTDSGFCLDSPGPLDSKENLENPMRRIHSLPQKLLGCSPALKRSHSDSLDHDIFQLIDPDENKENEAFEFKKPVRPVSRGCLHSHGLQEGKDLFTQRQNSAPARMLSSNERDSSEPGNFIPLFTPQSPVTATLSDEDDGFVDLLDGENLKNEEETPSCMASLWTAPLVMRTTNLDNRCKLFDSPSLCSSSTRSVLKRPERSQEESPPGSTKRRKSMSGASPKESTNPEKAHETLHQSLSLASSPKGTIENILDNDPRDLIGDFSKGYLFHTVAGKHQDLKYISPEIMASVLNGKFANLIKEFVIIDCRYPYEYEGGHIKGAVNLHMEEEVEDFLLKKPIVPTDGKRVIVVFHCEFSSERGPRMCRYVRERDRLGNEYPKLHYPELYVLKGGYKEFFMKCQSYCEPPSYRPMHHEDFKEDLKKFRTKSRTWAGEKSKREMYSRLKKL
# TEST: Phosphatase Inhibition Assay
# EXPERIMENTAL SETUP: pH 8; 37 °C
To interpret pIC50, take it as minus log10 of a concentration measured in moles per litre.

Qu. Enter reported pIC50 observed with M-phase inducer phosphatase 1 (Homo sapiens, UniProt P30304) for C/C(=C1\C=CC=N1)c1ccc(-c2ccc[nH]2)o1
Ans. 4.40

Qu. Enter reported pIC50 observed with M-phase inducer phosphatase 1 (Homo sapiens, UniProt P30304) for C/C(=C1\C=CC=N1)c1ccc(-c2[nH]ccc2Cl)o1
Ans. 4.47
